Values were extracted from ChEMBL document CHEMBL2062505.

tested on: Mycobacterium tuberculosis; experiment: Binding affinity to Mycobacterium tuberculosis DXR by isothermal titration […] assay in presence of 2 mM NADPH and 150 mM NaCl at 279 K and pH 7.6
Readout: Ka (×10⁵ /M)
Field format: number, assumed ×10⁵ /M, no unit text.

Prompt: Return Ka measured with Mycobacterium tuberculosis given this compound: "O=P(O)(O)Cc1ccc(-c2ccccc2)cn1"
Response: 4.44

Prompt: Return Ka measured with Mycobacterium tuberculosis given this compound: "O=P(O)(O)Cc1ccccn1"
Response: 6.29

Prompt: Return Ka measured with Mycobacterium tuberculosis given this compound: O=c1ccc(-c2ccccc2)cn1O [1-HYDROXY-5-PHENYLPYRIDIN-2(1H)-ONE]
Response: 3.42

---

experiment: Inhibition of His6-tagged Plasmodium falciparum DXR expressed in Escherichia coli M15 using DXP as substrate preincubated for 5 mins
Hi! Could you tag entries with Ki below 1000 nM as yes, and those at or above as no? Much appreciated.

Prompt: Identify whether the compound "O=P(O)(O)Cc1ccc(-c2ccccc2)cn1" records Ki below 1000 nM.
Response: no

Prompt: Identify whether the compound CC(=O)N(O)CCCP(=O)(O)O [FR-900098] records Ki below 1000 nM.
Response: yes

Prompt: Identify whether the compound O=CN(O)CCC(c1ccc(Cl)c(Cl)c1)P(=O)(O)O (stereo not given) records Ki below 1000 nM.
Response: yes

Prompt: Identify whether the compound O=P(O)(O)Cc1ccccn1 [PYRIDIN-2-YLMETHYLPHOSPHONIC ACID] records Ki below 1000 nM.
Response: no

Prompt: Identify whether the compound O=c1ccc(-c2ccccc2)cn1O [1-HYDROXY-5-PHENYLPYRIDIN-2(1H)-ONE] records Ki below 1000 nM.
Response: no

---

Answer each item with its documented Ka.
test system: Plasmodium falciparum; test: Binding affinity to His6-tagged Plasmodium falciparum DXR expressed in Escherichia coli M15 by isothermal titration […] assay in presence of 2 mM NADPH and 150 mM NaCl at 279 K and pH 7.6
Field format: number, assumed ×10⁵ /M, no unit text.

Prompt: Quick one: Ka for "O=P(O)(O)Cc1ccc(-c2ccccc2)cn1" ?
Response: 4.67

Prompt: Quick one: Ka for "O=P(O)(O)Cc1ccccn1" ?
Response: 8.77

Prompt: Quick one: Ka for O=c1ccc(-c2ccccc2)cn1O [1-HYDROXY-5-PHENYLPYRIDIN-2(1H)-ONE] ?
Response: 2.69

---

Answer each item with its documented Ka.
test system: Escherichia coli; experiment: Binding affinity to Escherichia coli DXR by isothermal titration […] assay in presence of 2 mM NADPH and 150 mM NaCl at 279 K and pH 7.6 and Mg2+

Prompt: Quick one: Ka for O=c1ccc(-c2ccccc2)cn1O [1-HYDROXY-5-PHENYLPYRIDIN-2(1H)-ONE] ?
Response: 1.72 ×10⁵ /M

Prompt: Quick one: Ka for "O=P(O)(O)Cc1ccccn1" ?
Response: 4.93 ×10⁵ /M

Prompt: Quick one: Ka for "O=CN(O)CCCP(=O)(O)O" ?
Response: 6.67 ×10⁶ /M

Prompt: Quick one: Ka for "CC(=O)N(O)CCCP(=O)(O)O" ?
Response: 7.14 ×10⁶ /M

Prompt: Quick one: Ka for O=CN(O)CCC(c1ccc(Cl)c(Cl)c1)P(=O)(O)O (stereo unspecified) ?
Response: 3.03 ×10⁶ /M

Prompt: Quick one: Ka for "O=P(O)(O)Cc1ccc(-c2ccccc2)cn1" ?
Response: 4.83 ×10⁵ /M
